# folding stability dG unfold per entry
# assayText: folding stability dG unfold (combined trypsin and chymotrypsin); higher = more stable
Note: unit kcal/mol is implicit; provide only the numeric part.

Reference set (2 entries):
SAGGSAGGMTFVDLGEDKPVVIEVPPRPETGLYPVVIHPPEKPVFVEVESPEEAIEAAEKLVEGSAGGSAGG [r6_715_TrMRF] | 1.12
SAGKIKVYYDPKLGRIIEIPLPNGKRIRIYLPKNKLIIVAEDPEGNKAIPIEIETKIGDIIKIIKEIAGSAG [r5_820_TrMRF] | 3.16

Consider the additional sequence presented here.
Record summary for SAGGSAGGSAAEPPPPATIEVLVLNEDGYVYRAEIRVNEDGEITIEVEKIPVKPGESLEELSAGGSAGGSAG [r3_437_TrROS_Hall] : reported folding stability dG unfold = 3.79

// data source = the supplement of paper PMC12764529
